Attribute: IC50
target: UniProt P12931; assay: IC50 inhibitory activity against c-Src kinase; format: biochemical
Square brackets hold non-standard residues; d marks the D form. Peptide text beside a SMILES is read from it. * marks the point of attachment. X1 = Cc1ccc(Nc2ncc3c(n2)N(C)C(=O)N(c2cc(C(=O)*)ccc2C)C3)cn1; Aze = O=C(O)[C@@H]1CCN1; Ac4c = NC1(C(=O)O)CCC1; Aib = CC(C)(N)C(=O)O

[
  {
    "COMPOUND": "Cc1ccc(Nc2ncc3c(n2)N(C)C(=O)N(c2cc(C(=O)N[C@H](C(=O)N4CCC[C@@H]4C(=O)NCC(=O)N[C@@H](CC(C)C)C(=O)N(C)C)C(C)C)ccc2C)C3)cn1 [Example 5] (X1-V[dP]GL-NMe2)",
    "IC50": "> 600 nM"
  },
  {
    "COMPOUND": "Cc1ccc(Nc2ncc3c(n2)N(C)C(=O)N(c2cc(C(=O)NCC(=O)N4CCC[C@H]4C(=O)NC(C)(C)C(=O)N[C@@H](CC(C)C)C(=O)N(C)C)ccc2C)C3)cn1 [Example 18] (X1-GP[Aib]L-NMe2)",
    "IC50": "400 to 600 nM"
  },
  {
    "COMPOUND": "Cc1ccc(Nc2ncc3c(n2)N(C)C(=O)N(c2cc(C(=O)N[C@H](C(=O)N4CC[C@H]4C(=O)NC(C)(C)C(=O)N[C@@H](CC(C)C)C(=O)N(C)C)C(C)C)ccc2C)C3)cn1 [Example 15] (X1-V[Aze][Aib]L-NMe2)",
    "IC50": "> 600 nM"
  },
  {
    "COMPOUND": "Cc1ccc(Nc2ncc3c(n2)N(C)C(=O)N(c2cc(C(=O)N[C@H](C(=O)N4CCC[C@H]4C(=O)NC4(C(=O)N[C@@H](CC(C)C)C(=O)N(C)C)CCC4)C(C)C)ccc2C)C3)cn1 [Example 12] (X1-VP[Ac4c]L-NMe2)",
    "IC50": "> 600 nM"
  }
]

* * *

Attribute: IC50
biological target: c-Src (Homo sapiens); test: IC50 inhibitory activity against c-Src kinase; type: biochemical; conditions: read-out: c-Src IC50
Sequence (P12931 whole entry): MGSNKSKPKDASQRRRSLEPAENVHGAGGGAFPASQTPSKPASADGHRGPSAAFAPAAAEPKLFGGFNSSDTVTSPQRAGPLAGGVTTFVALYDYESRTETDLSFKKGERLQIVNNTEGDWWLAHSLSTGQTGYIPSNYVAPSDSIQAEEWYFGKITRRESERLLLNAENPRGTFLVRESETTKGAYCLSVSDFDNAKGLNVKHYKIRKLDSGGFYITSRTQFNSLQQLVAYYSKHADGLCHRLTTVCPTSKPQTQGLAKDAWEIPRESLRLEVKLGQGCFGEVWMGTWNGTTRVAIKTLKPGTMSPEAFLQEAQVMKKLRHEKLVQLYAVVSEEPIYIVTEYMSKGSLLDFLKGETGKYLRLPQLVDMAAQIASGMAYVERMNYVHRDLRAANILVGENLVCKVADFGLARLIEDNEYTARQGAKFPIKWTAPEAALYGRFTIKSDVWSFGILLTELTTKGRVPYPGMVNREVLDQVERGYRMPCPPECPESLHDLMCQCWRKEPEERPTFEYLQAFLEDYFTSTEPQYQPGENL
Square brackets hold non-standard residues; d marks the D form. Peptide text beside a SMILES is read from it. * marks the point of attachment. X1 = Cc1ccc(Nc2ncc3c(n2)N(C)C(=O)N(c2cc(C(=O)*)ccc2C)C3)cn1; Aib = CC(C)(N)C(=O)O
REPORTED_METRIC: IC50

[
  {
    "COMPOUND": "Cc1ccc(Nc2ncc3c(n2)N(C)C(=O)N(c2cc(C(=O)N[C@H](C(=O)N4CCC[C@H]4C(=O)NC(C)(C)C(=O)N[C@H](C(=O)N(C)C)C(C)C)C(C)C)ccc2C)C3)cn1 [Example 22] (X1-VP[Aib]V-NMe2)",
    "REPORTED": "> 600 nM"
  },
  {
    "COMPOUND": "CC1=N[C@@H](Cc2ccccc2)C(=O)Nc2cc(C(=O)Nc3ccc(C)c(N4Cc5cnc(Nc6ccc(C)nc6)nc5N(C)C4=O)c3)ccc21",
    "REPORTED": "1 to 200 nM"
  },
  {
    "COMPOUND": "CC[C@H](C)[C@H](NC(=O)c1ccc(C)c(N2Cc3cnc(Nc4ccc(C)nc4)nc3N(C)C2=O)c1)C(=O)N1CCC[C@H]1C(=O)NC(C)(C)C(=O)N[C@@H](CC(C)C)C(=O)N(C)C [Example 16] (X1-IP[Aib]L-NMe2)",
    "REPORTED": "200 to 400 nM"
  },
  {
    "COMPOUND": "Cc1ccc(Nc2ncc3c(n2)N(C)C(=O)N(c2cc(C(=O)N4C[C@@H](C(=O)NCc5ccccc5)[C@H](C(=O)NCc5ccc(Cl)cc5)C4)ccc2C)C3)cn1",
    "REPORTED": "1 to 200 nM"
  },
  {
    "COMPOUND": "COCCN1C(=O)[C@H](CC(C)C)N=C(c2ccccc2)c2ccc(C(=O)Nc3ccc(C)c(N4Cc5cnc(Nc6ccc(C)nc6)nc5N(C)C4=O)c3)cc21",
    "REPORTED": "1 to 200 nM"
  }
]
